Task for the reader: assign each of the following compounds its reported IC50.
- target_of_assay: Human immunodeficiency virus type 1 integrase (Human immunodeficiency virus 1)
- Sequence (Q7ZJM1 whole entry): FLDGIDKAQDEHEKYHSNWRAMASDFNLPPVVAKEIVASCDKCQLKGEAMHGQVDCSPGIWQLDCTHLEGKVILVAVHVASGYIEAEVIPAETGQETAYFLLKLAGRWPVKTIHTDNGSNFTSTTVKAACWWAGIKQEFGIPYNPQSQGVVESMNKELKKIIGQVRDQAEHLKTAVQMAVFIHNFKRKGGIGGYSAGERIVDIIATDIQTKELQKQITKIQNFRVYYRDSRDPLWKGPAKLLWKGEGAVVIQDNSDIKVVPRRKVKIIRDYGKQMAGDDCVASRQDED
- assay_protocol: Inhibition of HIV1 integrase 3'-end processing activity
Answers are plain numbers, in µM.

Dear colleague, could you send me IC50 for each of the items below? Thanks.
1. COc1ccc(C(=O)C2=NS(=O)(=O)c3cc(C)c(Cl)cc3S2)cc1
2. Cc1cc2c(cc1Cl)SC(C(=O)c1ccc(Br)cc1)=NS2(=O)=O
3. O=C(c1ccc2ccccc2c1)C1NS(=O)(=O)c2ccc(Cl)cc2S1 (stereo not given)
4. Cc1cc(Cl)cc2c1S(=O)(=O)NC(C(=O)c1ccc(Cl)c(Cl)c1)S2 (stereo not given)
5. Cc1cc2c(cc1Cl)SC(C(=O)c1ccc3ccccc3c1)=NS2(=O)=O

[30, 30, 8, 20, 28]

Data origin: ChEMBL document CHEMBL1154472
